Hey, just so you know, these numbers are from patent US11401270B2.

# assay.target: Human α2δ-1 subunit of Cav2.2 calcium channel (Homo sapiens (Human))
# test.protocol: Binding Assay to Human α2δ-1 Subunit of Cav2.2 Calcium Channel
# settings: Table 2, dual compounds; human α2δ-1 enriched membranes, 15 nM [3H]-Gabapentin; read-out: Ki(nM) alpha2delta Hum
Ki values by entry

molecule: CNCCC(OCc1cccc(N2CCCN(C)CC2)c1)c1cccs1 (stereo not shown)
Ki: 500 to 3000 nM

Ask | Write down the reported Ki (system: Human α2δ-1 subunit of Cav2.2 calcium channel (Homo sapiens (Human))) of `CCNC[C@H]1CC(=O)N(c2cccc(O[C@@H](CCNC)c3cccs3)c2)CCN1C`
Reply | 500 to 3000 nM

Ask | Write down the reported Ki (system: Human α2δ-1 subunit of Cav2.2 calcium channel (Homo sapiens (Human))) of `CNCC[C@H](Oc1ccc(CN2CCN(C)c3ncc(F)cc3C2=O)c(F)c1)c1ccccc1`
Reply | 100 to 500 nM

Ask | Write down the reported Ki (system: Human α2δ-1 subunit of Cav2.2 calcium channel (Homo sapiens (Human))) of `CNCC[C@H](Oc1cccc(N2CCN(C(C)C)CCC2=O)c1)c1ccsc1`
Reply | 100 to 500 nM

Ask | Write down the reported Ki (system: Human α2δ-1 subunit of Cav2.2 calcium channel (Homo sapiens (Human))) of CNCCC(Oc1ccc(CN2CCN(C)c3ncccc3C2=O)cc1)c1cccc(F)c1 (stereo not shown)
Reply | 100 to 500 nM

Ask | Write down the reported Ki (system: Human α2δ-1 subunit of Cav2.2 calcium channel (Homo sapiens (Human))) of CNCCC(Oc1ccc(CN2CCN(C)c3ncccc3C2=O)cc1)c1ccc(F)cc1 (stereo not shown)
Reply | 500 to 3000 nM

Ask | Write down the reported Ki (system: Human α2δ-1 subunit of Cav2.2 calcium channel (Homo sapiens (Human))) of `CNCC[C@H](Oc1ccc(CN2CCCn3nc(OC)cc3C2=O)c(F)c1)c1ccccc1`
Reply | 100 to 500 nM

Ask | Write down the reported Ki (system: Human α2δ-1 subunit of Cav2.2 calcium channel (Homo sapiens (Human))) of CNCCC(Oc1cccc(N2CCN(C(C)C)CCC2=O)c1)c1ccsc1 (stereo not shown)
Reply | 100 to 500 nM

Ask | Write down the reported Ki (system: Human α2δ-1 subunit of Cav2.2 calcium channel (Homo sapiens (Human))) of `CNCC[C@H](Oc1cccc(N2CCN(C)c3nc(C(F)(F)F)ccc3C2=O)c1)c1cccs1`
Reply | 100 to 500 nM

Ask | Write down the reported Ki (system: Human α2δ-1 subunit of Cav2.2 calcium channel (Homo sapiens (Human))) of CNCCC(Oc1cccc(N2CCN(C(C)C)CCC2=O)c1)c1cccs1 (stereo not shown)
Reply | 500 to 3000 nM

Ask | Write down the reported Ki (system: Human α2δ-1 subunit of Cav2.2 calcium channel (Homo sapiens (Human))) of `CNCC[C@H](Oc1ccc(CN2CCN(C)c3ncccc3C2=O)c(F)c1)c1cccc(F)c1`
Reply | < 100 nM

Ask | Write down the reported Ki (system: Human α2δ-1 subunit of Cav2.2 calcium channel (Homo sapiens (Human))) of `CNCC[C@H](Oc1ccc(CN2CCN(C)c3nc(OC)ccc3C2=O)cc1)c1cccs1`
Reply | 100 to 500 nM

Ask | Write down the reported Ki (system: Human α2δ-1 subunit of Cav2.2 calcium channel (Homo sapiens (Human))) of `CNCC[C@H](Oc1ccc(CN2CCCn3cccc3C2=O)cc1)c1cccs1`
Reply | 500 to 3000 nM

Ask | Write down the reported Ki (system: Human α2δ-1 subunit of Cav2.2 calcium channel (Homo sapiens (Human))) of CCN1CCC(=O)N(c2cccc(OC(CCNC)c3cccs3)c2)CC1 (stereo not shown)
Reply | 500 to 3000 nM

Ask | Write down the reported Ki (system: Human α2δ-1 subunit of Cav2.2 calcium channel (Homo sapiens (Human))) of `CNCC[C@H](Oc1ccc(CN2CCN(C)c3ncccc3C2=O)c(Cl)c1)c1cccs1`
Reply | < 100 nM

Ask | Write down the reported Ki (system: Human α2δ-1 subunit of Cav2.2 calcium channel (Homo sapiens (Human))) of `CNCC[C@H](Oc1ccc(CN2CCN(C)c3ncccc3C2=O)cc1)c1cccc(F)c1`
Reply | 100 to 500 nM

====

# assay.target: Human norepinephrine transporter (NET) (Homo sapiens (Human))
# test.protocol: Binding Assay to Human Norepinephrine Transporter (NET)
# settings: Table 2, dual compounds; human NET enriched membranes, 5 nM [3H]-Nisoxetin; read-out: Ki(nM) NET Hum
measured.parameter: Ki

compound: CNCC[C@H](Oc1ccc(CN2CCN(C)c3cnc(OC)cc3C2=O)c(F)c1)c1ccccc1
Ki: < 100 nM
//
compound: CNCC[C@H](Oc1ccc(CN2CCN(C)c3ncccc3C2=O)c(F)c1)c1ccccc1F
Ki: < 100 nM
//
compound: CNCCC(Oc1cccc(N2CCN(C(C)C)CCC2=O)c1)c1ccsc1 (stereo not drawn)
Ki: 100 to 500 nM
//
compound: CNCC[C@H](Oc1cccc(N2CCN(C(C)C)CCC2=O)c1)c1cccs1
Ki: 100 to 500 nM
//
compound: CNCCC(OCc1cccc(N2CCCN(C)CC2)c1)c1cccs1 (stereo not drawn)
Ki: 500 to 1000 nM

Could you now consider this next compound?
Ask | Write down the reported Ki (system: Human norepinephrine transporter (NET) (Homo sapiens (Human))) of `CNCC[C@H](Oc1ccc(CN2CCN(C)c3nc(N)ccc3C2=O)c(F)c1)c1cccc(F)c1`
Reply | < 100 nM

====

# assay.target: Human α2δ-1 subunit of Cav2.2 calcium channel (Homo sapiens (Human), UniProt P54289)
# Sequence (P54289 25-1103): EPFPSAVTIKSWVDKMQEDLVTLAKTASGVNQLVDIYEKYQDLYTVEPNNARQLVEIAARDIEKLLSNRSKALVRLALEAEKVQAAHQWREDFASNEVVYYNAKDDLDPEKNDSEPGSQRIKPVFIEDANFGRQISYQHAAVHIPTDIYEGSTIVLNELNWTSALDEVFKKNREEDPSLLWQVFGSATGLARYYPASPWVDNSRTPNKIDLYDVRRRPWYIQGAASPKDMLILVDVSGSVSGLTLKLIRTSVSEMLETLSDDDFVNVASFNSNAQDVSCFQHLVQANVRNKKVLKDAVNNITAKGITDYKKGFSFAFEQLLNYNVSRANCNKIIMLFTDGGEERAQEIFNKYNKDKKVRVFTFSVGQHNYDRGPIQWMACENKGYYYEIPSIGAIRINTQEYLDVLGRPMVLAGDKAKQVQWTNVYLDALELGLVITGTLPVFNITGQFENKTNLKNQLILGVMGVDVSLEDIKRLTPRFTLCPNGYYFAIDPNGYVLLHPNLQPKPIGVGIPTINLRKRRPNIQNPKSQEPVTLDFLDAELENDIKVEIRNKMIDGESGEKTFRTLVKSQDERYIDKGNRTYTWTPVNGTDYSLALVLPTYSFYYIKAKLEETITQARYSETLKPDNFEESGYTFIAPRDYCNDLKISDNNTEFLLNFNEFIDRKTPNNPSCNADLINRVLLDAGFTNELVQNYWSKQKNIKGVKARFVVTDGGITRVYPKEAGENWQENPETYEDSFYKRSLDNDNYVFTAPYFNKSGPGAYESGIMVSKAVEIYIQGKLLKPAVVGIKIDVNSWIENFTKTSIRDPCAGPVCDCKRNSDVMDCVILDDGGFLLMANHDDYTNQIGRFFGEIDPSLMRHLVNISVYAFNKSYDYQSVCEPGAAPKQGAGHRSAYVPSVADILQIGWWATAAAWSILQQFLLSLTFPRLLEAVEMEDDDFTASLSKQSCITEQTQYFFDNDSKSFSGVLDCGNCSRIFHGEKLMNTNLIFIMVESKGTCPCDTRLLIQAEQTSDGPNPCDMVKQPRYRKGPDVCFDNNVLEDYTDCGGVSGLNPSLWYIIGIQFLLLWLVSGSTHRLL
# test.protocol: Binding Assay to Human α2δ-1 Subunit of Cav2.2 Calcium Channel
# settings: Table 1; human α2δ-1 enriched membranes, 15 nM [3H]-Gabapentin; read-out: Ki(nM) alpha2delta Hum
measured.parameter: Ki

Here is how some compounds turned out for Ki.
compound: CNCCC(Oc1cccc(N2CCN(C)c3cc(F)cnc3C2=O)c1)c1cccs1 (centres unmarked)
assay.target: Human α2δ-1 subunit of Cav2.2 calcium channel (Homo sapiens (Human), UniProt P54289)
Ki: > 3000 nM
--
compound: CNCC[C@H](Oc1ccc(CN2CCN(C)c3nc(N(C)C)ccc3C2=O)cc1)c1cccs1
assay.target: Human α2δ-1 subunit of Cav2.2 calcium channel (Homo sapiens (Human), UniProt P54289)
Ki: 500 to 3000 nM
--
compound: CNCCC(Oc1ccc(F)c(N2CCN(C)c3ncccc3C2=O)c1)c1cccc(F)c1 (centres unmarked)
assay.target: Human α2δ-1 subunit of Cav2.2 calcium channel (Homo sapiens (Human), UniProt P54289)
Ki: 100 to 500 nM
--
compound: CNCCC(Oc1cccc(CN2CCN(C)c3ccccc3C2=O)c1)c1ccccc1 (centres unmarked)
assay.target: Human α2δ-1 subunit of Cav2.2 calcium channel (Homo sapiens (Human), UniProt P54289)
Ki: > 3000 nM
--
compound: CNCCC(Oc1cccc(N2CCCN(C)CC2=O)c1)c1cccs1 (centres unmarked)
assay.target: Human α2δ-1 subunit of Cav2.2 calcium channel (Homo sapiens (Human), UniProt P54289)
Ki: > 3000 nM

Ask | Please list Ki recorded for the compound `CNCC[C@H](Oc1ccc(CN2CCN(C)c3ncccc3C2=O)c(C2CC2)c1)c1ccccc1`
Reply | 100 to 500 nM

Ask | Please list Ki recorded for the compound CCNCC(=O)N1CCC(=O)N(c2cccc(OC(CCNC)c3cccs3)c2)CC1 (centres unmarked)
Reply | 500 to 3000 nM

====

Ki values by entry
# assay.target: Human norepinephrine transporter (NET) (Homo sapiens (Human), UniProt P23975)
# Sequence (P23975 whole entry): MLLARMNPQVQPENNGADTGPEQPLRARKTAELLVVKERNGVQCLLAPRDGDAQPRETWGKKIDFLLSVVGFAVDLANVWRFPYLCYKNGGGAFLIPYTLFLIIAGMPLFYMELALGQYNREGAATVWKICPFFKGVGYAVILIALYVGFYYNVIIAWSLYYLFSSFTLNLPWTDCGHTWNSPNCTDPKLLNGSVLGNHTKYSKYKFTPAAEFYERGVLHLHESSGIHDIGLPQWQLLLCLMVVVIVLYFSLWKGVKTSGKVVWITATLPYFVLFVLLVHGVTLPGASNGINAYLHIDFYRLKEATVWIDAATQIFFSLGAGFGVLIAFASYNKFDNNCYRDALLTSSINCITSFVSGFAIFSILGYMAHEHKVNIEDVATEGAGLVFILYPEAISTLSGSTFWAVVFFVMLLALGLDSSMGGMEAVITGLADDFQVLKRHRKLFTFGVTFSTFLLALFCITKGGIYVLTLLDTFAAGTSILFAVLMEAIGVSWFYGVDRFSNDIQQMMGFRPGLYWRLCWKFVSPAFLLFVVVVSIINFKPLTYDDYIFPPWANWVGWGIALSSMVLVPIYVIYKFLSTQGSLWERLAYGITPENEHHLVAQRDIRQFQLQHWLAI
# test.protocol: Binding Assay to Human Norepinephrine Transporter (NET)
# settings: Table 2, dual compounds; human NET enriched membranes, 5 nM [3H]-Nisoxetin; read-out: Ki(nM) NET Hum

Here is how some molecules turned out for Ki.
molecule: CCNc1ccc2c(n1)N(C)CCN(Cc1ccc(O[C@@H](CCNC)c3cccc(F)c3)cc1F)C2=O [Example 148]
Ki: < 100 nM
//
molecule: CNCC[C@H](Oc1cccc(N2CCN(C)c3nc(C)ccc3C2=O)c1)c1ccsc1 [Example 80]
Ki: < 100 nM

Ask | Please list Ki recorded for the molecule CNCC[C@@H](Oc1cccc(N2CCN(C(C)C)CCC2=O)c1)c1cccs1 [Example 67]
Reply | 500 to 1000 nM

Ask | Please list Ki recorded for the molecule CNCC[C@H](Oc1ccc(CN2CCN(C)c3nc(N)ccc3C2=O)cc1)c1cccs1 [Example 103]
Reply | < 100 nM

Ask | Please list Ki recorded for the molecule CNCCC(OCc1cccc(N2CCN(C)CCC2=O)c1)c1ccccc1 (centres unmarked) [Example 34]
Reply | 100 to 500 nM

Ask | Please list Ki recorded for the molecule CNCCC(Oc1cc(F)cc(N2CCN(C)c3ncccc3C2=O)c1)c1cccc(F)c1 (centres unmarked) [Example 121]
Reply | < 100 nM
